Value source: the supplement of paper PMC10567573

Measured protein stability index, listed per entry for reference.
B1: RAB40A (parent)
chain: NWLGRPSKVLSLQDLCCRTIVSCT

- Variants of: B1
- Assay protocol: protein stability index of a GFP-peptide fusion (GPS, HEK-293T) (PSI 1-6); higher = more stable;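 further: lentivirally expressed fusions sorted by FACS into six bins by GFP to DsRed ratio, PSI derived from sequencing read proportions per bin multiplied by bin number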
- Measurement parameters: c terminus: a fixed tail appended
Measurement kind: protein stability index

   variant_designation  measured
0                  L3D      2.62
1                 C16L      2.02
2                  V9D      2.28
3                  W2H      3.05
4                 R18N       2.5
5                  R5N      2.56
6                 V21I      2.31
7                  G4R      2.42
8                 C17Q      3.09
9                  L3C      2.39
